# target under test: T1, cynomolgus monkey IL-33 expressed with a C-terminal hexahistidine tag (cynomolgus monkey)
# T1 construct: also called MfIL-33-6His; Mf-IL-33-6His
# T1 chain: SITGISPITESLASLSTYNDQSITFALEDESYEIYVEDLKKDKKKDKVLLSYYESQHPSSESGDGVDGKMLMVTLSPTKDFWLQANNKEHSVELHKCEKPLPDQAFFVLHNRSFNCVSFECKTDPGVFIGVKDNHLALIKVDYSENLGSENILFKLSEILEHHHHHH
# measurement notes: SPR 25C, pH6.0 chase, mAb captured
observable: t½ (min)
# unit: min | format: bare number

Answered cases to consult:
H4H9665P (antibody, human IgG4, V domains shown, Human IgG4 Fc (H4H)) VH: EVQLVESGGGLVQPGGSLRLSCAASGFTFSNYAMTWVRQAPGKGLEWVSTISGSGDNTYYADSVQGRFTISRGHSKNTLYLQMNSLRAEDTAVYYCAKPTYSRSWYGAFDFWGQGTMVTVSS VL: DIQMTQSPSSVSASVGDRVTITCRASQGISSWLAWYQQKPGKAPQLLIYAASRLQSGVPSRFWGSGSGTDFTLTISSLQPEDFATYYCQQANNFPFTFGPGTKVDIK; 15
H1M9568N (antibody, mouse IgG1, V domains shown, Human variable domains, mouse IgG1 Fc (H1M)) VH: QVLLVQSGAEVKKPGATVKVSCKASGSTFTGYYMHWVRQAPGQGLEWMGWINPNNGGTNYAQKFQGRVTMTRDTSISTAYMELSRLRSDDTAVYYCARELRYNWKSWGQGTLVTVSS VL: EIVLTQSPGTLSLSPGERVTLSCRASQSVGRPYLAWYQQIPGQAPRLLIYGASSRATDIPDRFSGNGSGTDFTLTISRLEPEDFAVYYCQQYDNSPYTFGQGTRLEIK; 38
H4H9664P (antibody, human IgG4, V domains shown, Human IgG4 Fc (H4H)) VH: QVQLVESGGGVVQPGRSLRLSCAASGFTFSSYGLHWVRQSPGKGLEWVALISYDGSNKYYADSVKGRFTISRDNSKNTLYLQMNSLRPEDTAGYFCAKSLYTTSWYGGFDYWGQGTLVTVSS VL: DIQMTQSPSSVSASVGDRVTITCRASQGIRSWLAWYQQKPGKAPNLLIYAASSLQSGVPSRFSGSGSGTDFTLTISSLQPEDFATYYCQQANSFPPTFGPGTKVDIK; 24
H4H9667P (antibody, human IgG4, V domains shown, Human IgG4 Fc (H4H)) VH: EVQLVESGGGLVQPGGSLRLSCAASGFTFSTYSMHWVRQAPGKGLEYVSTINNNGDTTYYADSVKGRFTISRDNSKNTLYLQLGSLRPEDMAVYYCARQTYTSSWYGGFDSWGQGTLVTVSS VL: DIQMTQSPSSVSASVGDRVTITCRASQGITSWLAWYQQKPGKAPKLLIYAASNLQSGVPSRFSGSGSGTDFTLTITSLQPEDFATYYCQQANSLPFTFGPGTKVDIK; 17

Consider the record given below.
## Input Query (binder): H4H9671P (antibody, human IgG4, V domains shown, Human IgG4 Fc (H4H)) VH: EVQLVESGGGLVQPGGSLRLSCAASGFTLRSYFMTWVRQVPGKGLEGVSAISGISGGTYYTDSVKGRFTISRDNSKNTLFLQMNSLRAEDTAVYFCARTVYSSSYYGGFQHWGQGTLVTVSS VL: DIQMTQSPSSVSVSVGDRVTITCRASQGISSWLAWYQQKPGKAPKLLIYVASSLQSGVPSRFSGSGSGTDFTLTISSLQPEDFATYYCQQTNSFPLTFGGGTKVEIK ; field requested: t½
## Output 7

Provenance of the data: patent US20160362487A1
